composite z-score by entry:
experiment: small-molecule microarray binders of probe aCHRDL2, primary screen, biochemical, biotinylated probe, 635/667 nm fluorescence (AID 1100); details: higher = more signal
measured.property: composite z-score

[[record]]
compound = "O=C(O)[C@@]1(CCS(=O)(=O)c2ccccc2)COC(c2ccc(OCCCO)cc2)=N1"
quantitative_readout = 1.05

[[record]]
compound = "CN1C(=O)C2C=CC(C(O)c3ccc(-c4ccccc4)s3)N(N(c3ccccc3)c3ccccc3)C2C1=O (stereo not given)"
quantitative_readout = 0.798

[[record]]
compound = "CCCC[C@@H]1C[C@H]1[C@@H](NC(=O)c1ccco1)c1ccc(Cl)cc1"
quantitative_readout = 1.03

[[record]]
compound = "COC(=O)[C@@]1(Cc2ccc(OC)cc2)[C@H]2c3cc(C(=O)N4CCCC4)n(Cc4ccsc4Br)c3C[C@H]2CN1C(=O)c1ccccc1"
quantitative_readout = 1.08

[[record]]
compound = "CCOC(=O)C[C@H]1[C@H](OC(=O)c2cc3ccccc3oc2=O)[C@@H](NC(=O)C2CCCCC2)c2cc(OCCCO)ccc2N1C(=O)c1ccccc1"
quantitative_readout = -0.377

[[record]]
compound = "CCOC(=O)C[C@H]1[C@H](OC(=O)c2cc3ccccc3oc2=O)[C@@H](NC(=O)Cc2ccc(OC)cc2)c2cc(OCCCO)ccc2N1C(=O)c1ccccc1"
quantitative_readout = -0.355

[[record]]
compound = "CC1CC/C=C\\[C@H]2OC34C=CCN(Cn5nnc6ccccc65)C(=O)[C@H]3N(C(CO)C(C)C)C(=O)[C@@H]4C2C(=O)O1 (stereo not given in full)"
quantitative_readout = 0.547

[[record]]
compound = "OC([C@@H]1CC(c2ccccc2)=NO1)[C@H]1CC(c2ccccc2)=NO1 (stereo not given in full)"
quantitative_readout = -0.136

[[record]]
compound = "C=CC[C@]12N=C(c3ccc(OCCCO)cc3)O[C@H]1c1ccccc1N(Cc1ccccc1)C2=O"
quantitative_readout = 1.37

[[record]]
compound = "C=CCNC(=O)[C@H]1[C@@H]2C(=O)O[C@@H](c3ccccc3)[C@@H](c3ccccc3)N2[C@@H](c2ccc(OCCO)cc2)[C@]12C(=O)Nc1ccc(C#CC3=CCCCC3)cc12"
quantitative_readout = 0.171

[[record]]
compound = "CC(C)(C)OC(=O)CC[C@@]1(C(=O)NCC(O)CO)N=C(c2ccc(OCCCO)cc2)O[C@@H]1c1ccccc1N=[N+]=[N-] (stereo not given in full)"
quantitative_readout = 1.15

[[record]]
compound = "C#CCNC(=O)[C@H](Cc1ccccc1)NC(=O)CCC(=O)O"
quantitative_readout = -0.205

[[record]]
compound = "COc1ccc(CCN2C(=O)[C@@]3(Cc4ccccc42)c2ccccc2C(=O)N(Cc2ccccc2C(F)(F)F)[C@H]3c2ccc(CO)cc2)cc1"
quantitative_readout = -0.537

[[record]]
compound = "COCCOC(=O)N1C(=O)[C@@]2(c3cc(C#CCCO)ccc31)[C@H](c1ccc(OCCO)cc1)N1[C@H](c3ccccc3)[C@H](c3ccccc3)OC(=O)[C@H]1[C@@H]2C(=O)N1CCN(c2ncccn2)CC1"
quantitative_readout = 0.27

[[record]]
compound = "CN(C)CCCNC(=O)[C@@]1(c2ccc([N+](=O)[O-])cc2)CC(=O)N(C2CCCCC2)[C@@H]1c1ccc(CO)cc1"
quantitative_readout = 0.759

[[record]]
compound = "CC(C)c1ccc(NN2C(C(O)c3cc(C(F)(F)F)cc(C(F)(F)F)c3)C=CC3C(=O)N(c4ccccc4)C(=O)C32)cc1 (stereo not given)"
quantitative_readout = 0.8

[[record]]
compound = "[N-]=[N+]=NCc1ccccc1C[C@]1(C(=O)O)N=C(c2ccc(OCCCO)cc2)O[C@H]1c1ccccc1N=[N+]=[N-]"
quantitative_readout = 0.435

[[record]]
compound = "O=C1O[C@H](c2ccccc2)[C@H](c2ccccc2)N2[C@H]1[C@@H](C(=O)N1CCN(c3ncccn3)CC1)[C@]1(C(=O)Nc3ccc(C#CC4=CCCCC4)cc31)[C@H]2c1ccc(O)cc1"
quantitative_readout = 0.566

[[record]]
compound = "COc1ccc(C(=O)Nc2ccc(CN3C(=O)[C@@]4(O[C@@H](CCn5cc([C@H](O)c6ccccc6)nn5)[C@H]([Si](C)(C)c5ccc(OC)cc5)[C@H]4C)c4ccccc43)cc2)cc1"
quantitative_readout = 0.512

[[record]]
compound = "C=C(C)C1C(=C)CN([C@H](CO)c2ccccc2)C1=O (stereo not given in full)"
quantitative_readout = 0.22

[[record]]
compound = "CN1C(=O)C2C=CC(C(O)c3cccs3)N(Nc3ccccc3)C2C1=O (stereo not given)"
quantitative_readout = 0.272

[[record]]
compound = "O=C1OCCC=C[C@H]2OC34C=CCN(CCN5CCOCC5)C(=O)[C@H]3N(CCCCCCO)C(=O)[C@@H]4C12 (stereo not given in full)"
quantitative_readout = -0.35

[[record]]
compound = "COc1cc2c(cc1O)C=[N+](Cc1cccc(OC(F)(F)F)c1)CC2"
quantitative_readout = 0.39

[[record]]
compound = "CC(C)N1C(=O)c2ccccc2[C@](C)(C(=O)NCc2ccccc2)[C@@H]1c1ccc(CO)cc1"
quantitative_readout = 0.849

[[record]]
compound = "CCCCCN1CC=CC23O[C@@H]4/C=C\\CCCOC(=O)C4[C@H]2C(=O)N(CCCO)[C@@H]3C1=O (stereo not given in full)"
quantitative_readout = 0.062

[[record]]
compound = "C=CCNC(=O)[C@H]1[C@@H]2C(=O)O[C@@H](c3ccccc3)[C@@H](c3ccccc3)N2[C@@H](c2ccc(O)cc2)[C@]12C(=O)N(C(=O)OCCOC)c1ccc(C#CCNC(N)=O)cc12"
quantitative_readout = 0.537

[[record]]
compound = "Cc1ccc(S[C@]2(C(=O)NCCN3CCOCC3)CC(=O)N(Cc3ccccc3Cl)[C@@H]2c2ccc(CO)cc2)cc1"
quantitative_readout = 0.841

[[record]]
compound = "COC(=O)c1c(CC[C@@H](CO)NC(=O)N[C@@H](C)Cn2cc(C3(O)CCCCC3)nn2)oc(C(C)=O)c1C(=O)OC"
quantitative_readout = -0.481

[[record]]
compound = "O=C1c2ccccc2[C@@]2(Cc3ccccc3N(CCN3CCOCC3)C2=O)[C@H](c2ccc(CO)cc2)N1Cc1ccccc1"
quantitative_readout = 0.278

[[record]]
compound = "C#CCN(Cc1ccccc1Br)C(/C=C/c1ccccc1)CO (stereo not given)"
quantitative_readout = 0.326

